target: human IDO1 (Homo sapiens, UniProt P14902); test: Assessment of human IDO-1 inhibitory activity in HEK cells (human IDO1/HEK293 cells, kynurenine read-out with Ehrlich reagent, absorbance 490 nm); type: cell-based; parameters: expressed in transfected cells; conditions: HEK Human IDO-1 cellular assay
Sequence (P14902 whole entry): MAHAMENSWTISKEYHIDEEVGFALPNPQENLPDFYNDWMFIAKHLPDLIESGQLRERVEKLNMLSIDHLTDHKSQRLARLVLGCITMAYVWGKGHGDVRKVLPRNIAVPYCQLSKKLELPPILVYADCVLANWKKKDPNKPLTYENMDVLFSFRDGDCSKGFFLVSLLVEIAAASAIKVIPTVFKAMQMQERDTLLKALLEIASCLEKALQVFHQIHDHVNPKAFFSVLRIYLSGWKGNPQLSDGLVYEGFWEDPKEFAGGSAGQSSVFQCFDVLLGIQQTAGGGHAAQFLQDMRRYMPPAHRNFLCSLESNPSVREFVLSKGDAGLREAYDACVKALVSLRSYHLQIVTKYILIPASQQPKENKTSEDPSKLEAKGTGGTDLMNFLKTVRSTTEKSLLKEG
pIC50: −log10 of the molar value.
MEASURED_PROPERTY: pIC50

# COMPOUND, TARGET_UNDER_TEST, MEASURED_PROPERTY, OBSERVED
rows = [
    ("CCc1ccc(Nc2cc(C(C)CC(=O)O)ccc2N2C[C@@H](C)O[C@@H](C)C2)cc1 (single isomer, unassigned)", "human IDO1 (Homo sapiens, UniProt P14902)", "pIC50", "< 7.30"),
    ("CC(C)CN(c1ccc(C(CC(=O)O)C2CC2)cc1NC(=O)Nc1cncnc1)C1CCOCC1 (single isomer, unassigned) [Example 1207 Enantiomer 1]", "human IDO1 (Homo sapiens, UniProt P14902)", "pIC50", "< 7.30"),
    ("CC[C@H](CC(=O)O)c1ccc(N2CCOC[C@@H]2C(C)C)c(NC(=O)Nc2ccc(OC)cc2F)c1 (single isomer, unassigned)", "human IDO1 (Homo sapiens, UniProt P14902)", "pIC50", "< 7.30"),
    ("COCC(CC(=O)O)c1ccc(N(CC2CC2)C2CCOCC2)c(NC(=O)Nc2ccc(Cl)cc2F)c1 (single isomer, unassigned)", "human IDO1 (Homo sapiens, UniProt P14902)", "pIC50", "< 7.30"),
    ("CCC(CC(=O)O)c1ccc(N(CC(C)C)C2CCCCC2)c(Nc2cnc(OC(C)C)nc2)c1 (single isomer, unassigned)", "human IDO1 (Homo sapiens, UniProt P14902)", "pIC50", "> 8.30"),
    ("CC[C@@H](CC(=O)O)c1ccc(N(CC)C2CCOCC2)c(Nc2ccc3c(c2)OCCO3)c1 (single isomer, unassigned)", "human IDO1 (Homo sapiens, UniProt P14902)", "pIC50", "< 7.30"),
    ("CCC(CC(=O)O)c1cc(NC(=O)Nc2cnc(C)nc2)c(N(CC(C)C)C2CCCCC2)cc1F (single isomer, unassigned) [Example 1126]", "human IDO1 (Homo sapiens, UniProt P14902)", "pIC50", "> 8.30"),
    ("CC[C@H](CC(=O)O)c1ccc(N2CCC[C@@H]2C(C)(C)O)c(NC(=O)Nc2ccc(C)cc2)c1 (single isomer, unassigned)", "human IDO1 (Homo sapiens, UniProt P14902)", "pIC50", "< 7.30"),
]

// below: pIC50 requested for another compound
Name the reported pIC50 value associated with the compound CCOc1ccc(CC(=O)Nc2cc(C(COC)CC(=O)O)cc(F)c2N(CC(C)C)CC(C)C)cc1 (single isomer, unassigned) > 7.30

* * *

Target: human IDO1 (Homo sapiens, UniProt P14902)
Assay: Assessment of human IDO-1 inhibitory activity in Hela cells (Interferon-gamma stimulated HeLa cells, Ehrlich reagent, absorbance 490 nm)
Type: cell-based
Design: endogenous in cells; host or cells: HeLa cells stimulated with interferon-gamma
Settings: Hela Human IDO-1 cellular assay
Description: Exemplary compounds were tested for inhibition of IDO activity. Assessment of Human IDO-1 Inhibitory Activity in Hela Cells HeLa cells were seeded at 20,000 cells per 30 μL per well with RPMI/phenol red free media containing 10% FBS in a 384-well tissue culture plate (black with clear bottoms). […] Compound treatment was stopped by adding 5 μl trichloroacetic acid to a final concentration of 3%. […] Absorbance at 490 nm was measured on Envision plate reader. […]
pIC50: −log10 of the molar value.
Below is a list of entries, each paired with its recorded pIC50 value.

# COMPOUND, pIC50
measured = [
    ("CCCN(c1ccc([C@H](CC)CC(=O)O)cc1Nc1cnc(OC)nc1)C1CCOCC1 (single isomer, unassigned) [Example 551]", "> 8.30"),
    ("CCN(c1ccc([C@H](CC(=O)O)C(F)(F)F)cc1NC(=O)Nc1ccc(C#N)cc1)C1CCOCC1 (single isomer, unassigned) [Example 1268]", "< 7.30"),
    ("COCC(CC(=O)O)c1cc(F)c(N(CC(C)C)CC(C)C)c(Nc2ccc(Cl)cc2)c1 (single isomer, unassigned) [Example 920]", "> 8.30"),
    ("CCCN(c1ccc([C@H](CC)CC(=O)O)cc1Nc1ccc(C#N)cc1)C1CCOCC1 (single isomer, unassigned) [Example 547]", "> 8.30"),
    ("CCN(c1ccc([C@@H](COC)CC(=O)O)cc1NC(=O)Nc1ccc(Cl)cc1Cl)C1CCOCC1 (single isomer, unassigned) [Example 430]", "> 7.30"),
]

// below: pIC50 requested for another compound
Name the reported pIC50 value associated with the compound CCC1COCCN1c1ccc([C@@H](COC)CC(=O)O)cc1Nc1ccc(C#N)cc1 (single isomer, unassigned) [Example 1281] < 7.30
